Cited source for all entries: patent US9834554B2

# TARGET_OF_ASSAY: BTK enzyme (recombinant full-length BTK, hBTK) (Homo sapiens (Human))
# Sequence (Q06187 whole entry): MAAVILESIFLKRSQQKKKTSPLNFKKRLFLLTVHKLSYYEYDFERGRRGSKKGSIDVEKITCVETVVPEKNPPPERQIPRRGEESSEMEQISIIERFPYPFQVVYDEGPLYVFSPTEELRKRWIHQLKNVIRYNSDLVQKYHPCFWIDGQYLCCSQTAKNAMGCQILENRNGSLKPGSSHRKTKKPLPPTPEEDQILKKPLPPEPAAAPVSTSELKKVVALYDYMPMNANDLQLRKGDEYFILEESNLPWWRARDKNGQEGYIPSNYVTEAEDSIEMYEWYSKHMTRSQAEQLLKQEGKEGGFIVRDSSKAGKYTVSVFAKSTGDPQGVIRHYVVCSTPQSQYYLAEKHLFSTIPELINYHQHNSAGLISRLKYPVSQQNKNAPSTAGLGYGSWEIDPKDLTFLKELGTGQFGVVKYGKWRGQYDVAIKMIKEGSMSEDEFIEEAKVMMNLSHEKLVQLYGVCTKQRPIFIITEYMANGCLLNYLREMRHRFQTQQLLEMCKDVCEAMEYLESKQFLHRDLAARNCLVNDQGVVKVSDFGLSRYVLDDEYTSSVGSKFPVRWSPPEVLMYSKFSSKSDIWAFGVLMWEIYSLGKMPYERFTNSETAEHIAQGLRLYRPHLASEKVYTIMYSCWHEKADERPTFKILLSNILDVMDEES
# ASSAY_INFO: Btk enzyme activity assay, LANCE TR-FRET
# RUN_CONDITIONS: read-out: BTK binding IC50; 50 pM hBTK, 2 μM biotin-A5-peptide, 25 μM ATP; 60 minute compound & enzyme incubation
IC50 less than 3 nM is 1; IC50 greater than or equal to 3 nM is 0.

1) COCC(=O)N1CCO[C@@H](c2nn(-c3ccc(C(=O)Nc4cc(OC)ccn4)cc3)c3c(N)nccc23)C1 [Example 7]
0
2) CC(C)C(=O)N1CCC[C@@H](c2nn(-c3ccc(C(=O)Nc4cc(C(F)(F)F)ccn4)cc3)c3c(N)nccc23)C1 [Example 19]
1
3) Nc1nccc2c([C@@H]3CC[C@H]4CCC(=O)N4C3)nn(-c3ccc(C(=O)Nc4cc(C(F)(F)F)ccn4)cc3OC3CC3)c12 [Example 39]
1
4) Nc1nccc2c([C@@H]3CCCN(C(=O)c4cnon4)C3)nn(-c3ccc(C(=O)Nc4cc(C(F)(F)F)ccn4)cc3)c12 [Example 13]
0
5) C[C@H]1CC[C@@H](c2nn(-c3ccc(C(=O)Nc4cccc(OC5CC5)c4)cc3)c3c(N)nccc23)CN1C(=O)C1(C)COC1 [Example 35]
1
6) COCCOCC(=O)N1CCC[C@@H](c2nn(-c3ccc(C(=O)Nc4cc(C(F)(F)F)ccn4)cc3)c3c(N)nccc23)C1 [Example 23]
1

* * *

# TARGET_OF_ASSAY: BTK enzyme (recombinant full-length BTK, hBTK) (Homo sapiens (Human))
# ASSAY_INFO: Btk enzyme activity assay, LANCE TR-FRET
pIC50: −log10 of the molar value.
OBSERVED_PROPERTY: pIC50

1. Nc1nccc2c([C@@H]3CC[C@H]4CCC(=O)N4C3)nn(-c3ccc(C(=O)Nc4cc(C(F)(F)F)ccn4)cc3)c12
9.77
2. N#CC1(C(=O)N2CCC[C@@H](c3nn(-c4ccc(C(=O)Nc5cc(C(F)(F)F)ccn5)cc4)c4c(N)nccc34)C2)CC1
8.66

* * *

# TARGET_OF_ASSAY: BTK enzyme (recombinant full-length BTK, hBTK) (Homo sapiens (Human))
# ASSAY_INFO: Btk enzyme activity assay, LANCE TR-FRET
# RUN_CONDITIONS: read-out: BTK binding IC50; 50 pM hBTK, 2 μM biotin-A5-peptide, 25 μM ATP; 60 minute compound & enzyme incubation
Heads up, the class ranges for IC50 are lower (below 0.9 nM), middle (0.9 nM to below 2 nM), upper (2 nM or more)

1. COCC(=O)N1CCO[C@@H](c2nn(-c3ccc(C(=O)Nc4cc(C(F)(F)F)ccn4)cc3)c3c(N)nccc23)C1
upper
2. Cc1noc(C)c1C(=O)N1CCC[C@@H](c2nn(-c3ccc(C(=O)Nc4cc(C(F)(F)F)ccn4)cc3)c3c(N)nccc23)C1
upper
3. CC1(C(=O)N2CCC[C@@H](c3nn(-c4ccc(C(=O)Nc5cc(C(F)(F)F)ccn5)cc4)c4c(N)nccc34)C2)COC1
lower
4. CCC(=O)N1CCO[C@@H](c2nn(-c3ccc(C(=O)Nc4cc(C(F)(F)F)ccn4)cc3)c3c(N)nccc23)C1
middle
5. CC(=O)N1CCC[C@@H](c2nn(-c3ccc(C(=O)Nc4cc(C(F)(F)F)ccn4)cc3)c3c(N)nccc23)C1
lower
6. COc1ccnc(NC(=O)c2ccc(-n3nc([C@H]4CN(C(C)=O)CCO4)c4ccnc(N)c43)cc2)c1
upper
7. CCOc1cc(C(=O)Nc2cc(C(F)(F)F)ccn2)ccc1-n1nc([C@@H]2CC[C@H]3CCC(=O)N3C2)c2ccnc(N)c21
lower
8. C[C@H]1CC[C@@H](c2nn(-c3ccc(C(=O)Nc4cc(C5CC5)ccn4)cc3)c3c(N)nccc23)CN1C(=O)C1CC1
middle
9. COc1cc(C(=O)Nc2cc(C(F)(F)F)ccn2)ccc1-n1nc([C@@H]2CC[C@H]3CCC(=O)N3C2)c2ccnc(N)c21
middle
10. CC(=O)N1CCO[C@@H](c2nn(-c3ccc(C(=O)Nc4cc(C(F)(F)F)ccn4)cc3)c3c(N)nccc23)C1
upper
11. CC1(C(=O)N2CCO[C@@H](c3nn(-c4ccc(C(=O)Nc5cc(C(F)(F)F)ccn5)cc4)c4c(N)nccc34)C2)COC1
upper
12. Cc1n[nH]cc1C(=O)N1CCC[C@@H](c2nn(-c3ccc(C(=O)Nc4cc(C(F)(F)F)ccn4)cc3)c3c(N)nccc23)C1
lower
13. COc1ccnc(NC(=O)c2ccc(-n3nc([C@@H]4CCCN(C(=O)C5(C)COC5)C4)c4ccnc(N)c43)cc2)c1 [Example 28, 2,2,2-trifluoroacetate]
lower
14. COCCC(=O)N1CCC[C@@H](c2nn(-c3ccc(C(=O)Nc4cc(C(F)(F)F)ccn4)cc3)c3c(N)nccc23)C1
lower
15. Nc1nccc2c([C@@H]3CCCN(C(=O)CC4CCC4)C3)nn(-c3ccc(C(=O)Nc4cc(C(F)(F)F)ccn4)cc3)c12
upper
16. C[C@H](O)C(=O)N1C[C@H](c2nn(-c3ccc(C(=O)Nc4cc(C5CC5)ccn4)cc3)c3c(N)nccc23)CC[C@@H]1C
middle
17. C[C@@H](O)C(=O)N1C[C@H](c2nn(-c3ccc(C(=O)Nc4cccc(OC5CC5)c4)cc3)c3c(N)nccc23)CC[C@@H]1C
upper
18. COCC(=O)Nc1nccc2c([C@H]3CN(C(=O)COC)CCO3)nn(-c3ccc(C(=O)Nc4cc(C(F)(F)F)ccn4)cc3)c12
upper
19. CCC(=O)N1CCC[C@@H](c2nn(-c3ccc(C(=O)Nc4cc(C(F)(F)F)ccn4)cc3)c3c(N)nccc23)C1
lower
20. Nc1nccc2c([C@@H]3CCCN(C(=O)C4CC4)C3)nn(-c3ccc(C(=O)Nc4cc(C(F)(F)F)ccn4)cc3)c12
lower
21. CC1(C(=O)N2CCC[C@@H](c3nn(-c4ccc(C(=O)Nc5cc(C(F)(F)F)ccn5)cc4)c4c(N)nccc34)C2)CC1
lower
22. C[C@H]1CC[C@@H](c2nn(-c3ccc(C(=O)Nc4cc(C5CC5)ccn4)cc3)c3c(N)nccc23)CN1C(=O)C1(C)COC1
middle
23. C[C@H]1CC[C@@H](c2nn(-c3ccc(C(=O)Nc4cccc(OC5CC5)c4)cc3)c3c(N)nccc23)CN1C(=O)C1CC1
lower
24. Nc1nccc2c([C@@H]3CCCN(C(=O)C4CCC4)C3)nn(-c3ccc(C(=O)Nc4cc(C(F)(F)F)ccn4)cc3)c12
middle

* * *

The following compounds are shown together with reported IC50 values.
# TARGET_OF_ASSAY: BTK enzyme (recombinant full-length BTK, hBTK) (Homo sapiens (Human))
# ASSAY_INFO: Btk enzyme activity assay, LANCE TR-FRET
# RUN_CONDITIONS: read-out: BTK binding IC50; 50 pM hBTK, 2 μM biotin-A5-peptide, 25 μM ATP; 60 minute compound & enzyme incubation
OBSERVED_PROPERTY: IC50 (nM)

1) Nc1nccc2c([C@@H]3CCCN(C(=O)C4(O)CC4)C3)nn(-c3ccc(C(=O)Nc4cc(C(F)(F)F)ccn4)cc3)c12
0.59
2) COc1ccnc(NC(=O)c2ccc(-n3nc([C@H]4CN(C(=O)C5(C)COC5)CCO4)c4ccnc(N)c43)cc2)c1
42.1
3) Nc1nccc2c([C@@H]3CCCN(C(=O)C4CC(F)(F)C4)C3)nn(-c3ccc(C(=O)Nc4cc(C(F)(F)F)ccn4)cc3)c12
2.5
4) CCOCC(=O)N1CCC[C@@H](c2nn(-c3ccc(C(=O)Nc4cc(C(F)(F)F)ccn4)cc3)c3c(N)nccc23)C1
1.2
5) COc1ccnc(NC(=O)c2ccc(-n3nc([C@@H]4CCCN(C(=O)C(C)(CO)CO)C4)c4ccnc(N)c43)cc2)c1 [Example 29, 2,2,2-trifluoroacetate]
1.6
6) COc1cc(C(=O)Nc2cccc(C(F)(F)F)c2)ccc1-n1nc([C@@H]2CC[C@H](C)N(C(=O)C3CC3)C2)c2ccnc(N)c21
2.1
